Every entry's value here was drawn from the supplement of paper PMC8728848.

Biological target: Neu5Ac(a2-3)Gal(b1-4)GlcNAc(b1-3)Gal(b1-4)GlcNAc(b1-3)Gal(b1-4)GlcNAc
Assay: glycan array binding signal (z-score within array); higher = stronger binding
Conditions: glycan notation: IUPAC condensed, linker removed
Many of the other results were omitted from the sample, so the strongest signals are more common in it than they were.
MEASURED PARAMETER: glycan array binding signal (z-score)
Lab note: jot the number down without any unit.

Consider the binder NPA (Narcissus pseudonarcissus), C0HM45 (protein) DNILYSGETLSPGEFLNNGRYVFIMQEDCNLVLYDVDKPIWATNTGGLDRRCHLSMQSDGNLVVYSPRNNPIWASNTGGENGNYVCVLQKDRNVVIYGTARWATGTNIH and give its measured glycan array binding signal (z-score). -0.151

Subsequent entry: chitinase 3-like protein 2 (Homo sapiens) (protein) YKLVCYFTQWSQDRQEPGKFTPENIDPFLCSHLIYSFASIENNKVIIKDKSEVMLYQTINSLKTKNPKLKILLSIGGYLFGSKGFHPMVDSSTSRLEFINSIILFLRNHNFDGLDVSWIYPDQKENTHFTVLIHELAEAFQKDFTKSTKERLLLTAGVSAGRQMIDNSYQVEKLAKDLDFINLLSFDFHGSWEKPLITGHNSPLSKGWQDRGPSSYYNVEYAVGYWIHKGMPSEKVVMGIPTYGHSFTLASAETTVGAPASGPGAAGPITESSGFLAYYEICQFLKGAKITRLQDQQVPYAVKGNQWVGYDDVKSMETKVQFLKNLNLGGAMIWSIDMDDFTGKSCNQGPYPLVQAVKRSLGSL -0.127

Subsequent entry: PILRa (Homo sapiens), Q9UKJ1 (protein) MGRPLLLPLLPLLLPPAFLQPSGSTGSGPSYLYGVTQPKHLSASMGGSVEIPFSFYYPWELATAPDVRISWRRGHFHRQSFYSTRPPSIHKDYVNRLFLNWTEGQKSGFLRISNLQKQDQSVYFCRVELDTRSSGRQQWQSIEGTKLSITQAVTTTTQRPSSMTTTWRLSSTTTTTGLRVTQGKRRSDSWHISLETAVGVAVAVTVLGIMILGLICLLRWRRRKGQQRTKATTPAREPFQNTEEPYENIRNEGQNTDPKLNPKDDGIVYASLALSSSTSPRAPPSHRPLKSPQNETLYSVLKA -0.327

Subsequent entry: pilr alpha (protein) MLYGVTQPKHLSASMGGSVEIPFSFYYPWELATAPDVRISWRRGHFHRQSFYSTRPPSIHKDYVNRLFLNWTEGQKSGFLRISNLQKQDQSVYFCRVELDTRSSGRQQWQSIEGTKLSIT -0.173

Subsequent entry: Gal 9 (Homo sapiens), O00182 (protein) MAFSGSQAPYLSPAVPFSGTIQGGLQDGLQITVNGTVLSSSGTRFAVNFQTGFSGNDIAFHFNPRFEDGGYVVCNTRQNGSWGPEERKTHMPFQKGMPFDLCFLVQSSDFKVMVNGILFVQYFHRVPFHRVDTISVNGSVQLSYISFQNPRTVPVQPAFSTVPFSQPVCFPPRPRGRRQKPPGVWPANPAPITQTVIHTVQSAPGQMFSTPAIPPMMYPHPAYPMPFITTILGGLYPSKSILLSGTVLPSAQRFHINLCSGNHIAFHLNPRFDENAVVRNTQIDNSWGSEERSLPRKMPFVRGQSFSVWILCEAHCLKVAVDGQHLFEYYHRLRNLPTINRLEVGGDIQLTHVQT 0.554

Subsequent entry: RegIIIalpha (Mus musculus), O09037 (protein) MLPHLVLNSISWMLLSCLLFVFQVQGEDFQKEVPSPRTSCPMGYKAYRSHCYALVMTPKSWFQADLVCQKRPSGHLVSILSGGEASFVSSLVNGRVDNYQDIWIGLHDPTMGQQPNGGGWEWSNSDVLNYLNWDGDPSSTVNRGHCGSLTASSGFLKWGDYYCDGTLPFVCKFKQ 0.002

Subsequent entry: PhypaEULS3 (Physcomitrella patens) (protein) MLPVRLHCKADPNFNLAAVPGQGPVMVPFSPNDDFQVWYKDVTMSTRVKDETGSSAFSLINKATGQALRHAPEDLAQCLLADYDSNALDQTVLWTMSEDMGQGYCCIRLASQITRNLDVFRGDKKSGGVKEGSPVITFAWKKQDNQIWKMITAILEQKLISEEDLNSAVDHHHHHH 0.343
